Source of measurements: ChEMBL document CHEMBL1148956

Assay: Toxicity against brine shrimp larvae
Format: organism-based
Conditions: artemia, in vivo
This listing pairs molecules with measured LC50.
Report the value in µg/mL with no unit label.

molecule	units	data value
C=C1C(CC2C[C@H](O)C=C2C)C(C)(C)C[C@H]1O (some centres not stated) [GODOTOL A]	µg/mL	290

Reported LC50 for C=C1C[C@@H](O)C=C(C)C2C1CC[C@@H](O)C2(C)C (some centres not stated) [GODOTOL B] : what is it?
540
